Tested on: SW-620 colon
experimental.details: NCI tumour cell line growth inhibition, 48 h
parameter: TGI

// known answers, use as guide
O=C(CN1CCOCC1)c1ccc2[nH]c(=O)oc2c1	> 100 µM
COC(=O)C1C(=O)O[C@@H](c2ccc(OC)cc2)C1C(=O)OC (stereo not given in full)	> 100 µM
[Ce+3].[Cl-].[O-]/N=C(\c1ccccc1)c1ccccn1.[O-]/N=C(\c1ccccc1)c1ccccn1.[O-]/N=C(\c1ccccc1)c1ccccn1	> 100 µM
CCCCCCCCCCCCCCCCc1c(C(=O)OC)[nH]c(=S)[nH]c1=O	> 50 µM

Lab note: next compound to report on.
Data point: `CCOP(=O)(OCC)/C(=C/c1ccccc1)CC(C)=O` ; TGI = > 100 µM

----------
Tested on: HOP-92 NSCLC
experimental.details: NCI tumour cell line growth inhibition, 48 h
parameter: TGI

// known answers, use as guide
Clc1cccc(Cn2cc(Cc3cn(Cc4cccc(Cl)c4)c4ccccc34)c3ccccc32)c1	> 100 µM
COC1=C(C)C(=O)C2C(C1=O)C(c1ccc(OC)c(OC)c1)[C@H]2C (stereo partly specified)	> 100 µM
O=C1OCC2=C1C(c1cccc([N+](=O)[O-])c1)c1cc3c(cc1N2CCO)CCC3 (stereo unspecified)	> 50 µM

Data point: `O=C(COC(c1ccc(F)cc1)c1ccc(F)cc1)N1CCN(CCCc2ccccc2)CC1` ; TGI = 8.02 µM

Data point: `COc1cc(O)c2c(=O)c3ccccc3n(C)c2c1` ; TGI = > 100 µM

Data point: CCN(CC)CC(O)CNc1ccc(NCC(O)CCl)c2c1C(=O)c1ccccc1C2=O (stereo unspecified) ; TGI = 18.2 µM

----------
System: SK-MEL-28 melanoma
experimental.details: NCI tumour cell line growth inhibition, 48 h
parameter: TGI

// known answers, use as guide
CCOC(=O)C(C)OC(=O)c1ccc(C)cc1 (stereo not drawn)	> 100 µM
COc1cccc(C2=NN(C(C)=O)C(c3cc(OC)c(OC)c(OC)c3)C2)c1 (stereo not drawn)	> 100 µM
C/C=C1/CN2CCC34C5=CC(=O)C(c6cc7c(cc6OC)N(C)C6=C(C(=O)OC)CC8(CC)CCCN9CCC67C98)=CC5=NC23CCC1C4C(=O)OC (stereo not drawn)	31 µM
NC(Cc1cc(Br)c(O)c(Br)c1)C(=O)O (stereo not drawn)	> 100 µM
COC(=O)C1C2CC3C(OC(=O)C31)C2I (stereo not drawn)	> 10 µM

Data point: `CSc1sc(C)cc1-c1nsc(=O)o1` ; TGI = > 100 µM

Data point: `CCOc1cc(NC(C)=O)ccc1C(=O)N/N=C/c1ccco1` ; TGI = > 100 µM

Data point: `O=C(CC(=O)C(=O)CC(=O)OCc1ccccc1)OCc1ccccc1` ; TGI = > 100 µM

Data point: `CCC[CH2][Sn]([CH2]CCC)([O]C(=O)c1cc(OC)c(OC)c(OC)c1)[O]C(=O)c1cc(OC)c(OC)c(OC)c1` ; TGI = 1.99 µM

Data point: C[C@H]1O[C@@H](O[C@H]2[C@@H](O)C[C@H](O[C@H]3[C@@H](O)C[C@H](O[C@H]4CC[C@]5(C)C6C[C@@H](O)[C@]7(C)[C@@H](C8=CC(=O)OC8)CC[C@]7(O)C6CC[C@@H]5C4)O[C@@H]3C)O[C@@H]2C)C[C@H](O)[C@@H]1O (stereo partly drawn) ; TGI = 0.222 µM

Data point: C/C=C/C=C/C1=NN(c2cccc(S(=O)(=O)O)c2)C2(C1)C(Cl)C(=O)N2c1nc2ccccc2s1 (stereo not drawn) ; TGI = 43.6 µM

Data point: `O=C(c1ccc(F)c(F)c1Nc1ccc(I)cc1F)N1CC(O)([C@H]2CCCCN2)C1` ; TGI = 3.45 µM

Data point: N#CC(NC12CC3CC(CC(C3)C1)C2)c1ccccc1 (stereo not drawn) ; TGI = > 100 µM
